Provenance of the data: patent US20120028901A1

target: TFPI (human TFPI-1α) as coated or added in the ELISA, microarray and enzymatic assays (human), P10646; settings: modification not given
measurement-kind: pEC50
The value called pEC50 is obtained by taking minus log10 of the concentration in mol/L.

Query: What measured pEC50 goes with FQSKGNVFVAGYFARLRAKL [JBT0806] ?
Response: 5.62
